Attribution: PubChem BioAssay AID1159580

experiment: chemical genetic growth profiling, strain panel (AID 1159580);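 also: tested at 20 µM; growth read once vehicle control cultures reached saturation at 30 °C; lower values mean less growth of the strain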; conditions: S. cerevisiae deletion strains, growth OD, locus YGR078C, strain PAC10, hits give low values
The whole screen tested about 5,500 compounds, of which about 2,000 (36%) were called active. Another 18% or so got no clear call; they are omitted. This is one part of the list.
I'd appreciate it if you marked entries criterion met when normalized growth is lower than 1 and criterion not met when it is not.

[
  {
    "COMPOUND": "COc1ccc2c(c1)CCC1C2CC[C@@]2(C)C1CC[C@@H]2O (stereo partly specified)",
    "CATEGORY_LABEL": "criterion met"
  },
  {
    "COMPOUND": "Cc1ccc(/C=C2\\CCc3ccccc3C2=O)o1",
    "CATEGORY_LABEL": "criterion met"
  },
  {
    "COMPOUND": "COc1ccc2c3c1OC1C(O)CC=C4C(C2)N(C)CCC431 (stereo unspecified)",
    "CATEGORY_LABEL": "criterion not met"
  },
  {
    "COMPOUND": "CCOC(=O)C1=C(N)Oc2ccc(Br)cc2C1C(C#N)C(=O)OCC (stereo unspecified)",
    "CATEGORY_LABEL": "criterion met"
  },
  {
    "COMPOUND": "CCOC(=O)/C(C#N)=C/c1ccc(Br)cc1",
    "CATEGORY_LABEL": "criterion met"
  },
  {
    "COMPOUND": "Cc1cc(Br)c(NC(=O)C(Cl)(Cl)Cl)c(Br)c1",
    "CATEGORY_LABEL": "criterion met"
  },
  {
    "COMPOUND": "CC1(C)C2CC(=O)[C@]3(C)C(CC[C@@]4(C)[C@H](c5ccoc5)OC(=O)C5OC543)[C@@]2(C)[C@@H](O)C[C@H]1O (stereo partly specified)",
    "CATEGORY_LABEL": "criterion not met"
  }
]
